- System: OVCAR-4 ovarian
- TEST DESCRIPTION: NCI-60 one-dose screen, 48 h (100 = growth as untreated, 0 = no growth, -100 = all killed)
- CONDITION CONTEXT: 10 µM unless noted
The panel holds about 83,000 compounds, 20% with a hit somewhere; the sample as a whole holds those more often.
REPORTED PROPERTY: growth (%)
One number for each entry, in %.

Okay, here is my list. What is growth for each of these?
1. CCCOC(=O)N[C@H]1CCc2c(Cl)c(OC)c(OC)c(OC)c2-c2ccc(SC)c(=O)cc21
2. O=C(CCN1CCCC1)Nc1ccc2c(NCCCCc3ccccc3)c3ccccc3nc2c1
3. O=C(Cc1ccccc1)NNc1nc(Cl)nc(N2CCN(C(c3ccccc3)c3ccccc3)CC2)n1
4. NC1=NN=C(N)C1=Cc1cc2ccccc2n2nnnc12
5. CCCOc1ccc(/C=N/Nc2cc(C)nc3ccc(Br)cc23)cc1
6. CCSCC1CC(O)(c2ccccc2)CC(c2ccc(F)cc2)O1 (stereo unspecified)

RESULT:
36.3
-74.6
106
105
88.1
24.5

Okay, here is my list. What is growth for each of these?
1. CCNc1nc2cc(Nc3ccnc4cc(Cl)ccc34)ccc2o1
2. O=C1OC(Cc2ccccc2)C1c1ccccc1 (stereo unspecified)

RESULT:
1. 75.5
2. 109

Okay, here is my list. What is growth for each of these?
1. COc1ccccc1NS(=O)(=O)c1cccc(C(=O)Nc2ccc(Br)cc2)c1
2. CCCCCCOc1ccc(/C=N/Nc2cc(C)nc3ccc(Cl)cc23)cc1
3. O=C1/C=C/[C@@H](O)[C@@H]2C[C@@H](O)C[C@H]2/C=C/CCC[C@H](CCc2cccc3ccccc23)O1
4. c1ccc(Cn2cnc3ccc(-c4nc(-c5ccc6c(c5)ncn6C5CCCCC5)cn5ccnc45)cc32)cc1

RESULT:
35.3
-58.1
14.4
16.8
